Tested on: MCF7
Assay: Antiproliferative activity against human MCF7 cells after 96 hrs by MTT assay
Type: functional, cell-based
Details: MCF7, 96 h
pIC50: −log10 of the molar value.
Overview of reported pIC50 across a group of molecules:

molecule | tested-system | pIC50
Cc1c(C)c2c(c(C)c1OC(=O)[C@@H](N)CCCCN)CC[C@@](C)(CCCC(C)CCCC(C)CCCC(C)C)O2 (stereo not given in full) | MCF7 | 4.92
CC(C)=CCC/C(C)=C/CC/C(C)=C/CC[C@]1(C)CCc2c(C)c(OC(=O)NS(=O)(=O)c3ccccc3)c(C)c(C)c2O1 | MCF7 | 5.35
CC(C)=CCC/C(C)=C/CC/C(C)=C/CC[C@]1(C)CCc2c(C)c(OC(=O)Nc3ccccc3)c(C)c(C)c2O1 | MCF7 | < 4.70
CC(C)=CCC/C(C)=C/CC/C(C)=C/CC[C@]1(C)CCc2cc(OC(=O)Nc3ccccc3)c(C)c(C)c2O1 | MCF7 | < 4.70
CC(C)=CCC/C(C)=C/CC/C(C)=C/CC[C@]1(C)CCc2cc(OC(=O)NS(=O)(=O)c3ccc(Cl)cc3)cc(C)c2O1 | MCF7 | < 4.70
CC(C)=CCC/C(C)=C/CC/C(C)=C/CC[C@]1(C)CCc2c(C)c(O)c(C)c(C)c2O1 [ALPHA-TOCOTRIENOL] | MCF7 | < 4.70
CC(C)=CCC/C(C)=C/CC/C(C)=C/CC[C@]1(C)CCc2cc(O)cc(C)c2O1 [DELTA-TOCOTRIENOL] | MCF7 | 4.81
Cc1c(C)c2c(c(C)c1OC(=O)CCC(=O)O)CC[C@@](C)(CCCC(C)CCCC(C)CCCC(C)C)O2 (stereo not given in full) | MCF7 | < 3.43
CC(C)=CCC/C(C)=C/CC/C(C)=C/CC[C@]1(C)CCc2cc(OC(=O)NS(=O)(=O)c3ccc(Cl)cc3)c(C)c(C)c2O1 | MCF7 | < 4.70
CC(C)=CCC/C(C)=C/CC/C(C)=C/CC[C@]1(C)CCc2cc(OC(=O)NCc3ccccc3)c(C)c(C)c2O1 | MCF7 | < 4.70
CC(C)=CCC/C(C)=C/CC/C(C)=C/CC[C@]1(C)CCc2cc(OC(=O)NS(=O)(=O)c3ccccc3)c(C)c(C)c2O1 | MCF7 | < 4.70
CC(C)=CCC/C(C)=C/CC/C(C)=C/CC[C@]1(C)CCc2cc(OC(=O)NCc3ccccc3)cc(C)c2O1 | MCF7 | < 4.70
CC(C)=CCC/C(C)=C/CC/C(C)=C/CC[C@]1(C)CCc2cc(O)c(C)c(C)c2O1 [GAMMA-TOCOTRIENOL] | MCF7 | 4.94
CC(C)=CCC/C(C)=C/CC/C(C)=C/CC[C@]1(C)CCc2cc(OC(=O)Nc3ccccc3)cc(C)c2O1 | MCF7 | < 4.70
CC(C)=CCC/C(C)=C/CC/C(C)=C/CC[C@]1(C)CCc2c(C)c(OC(=O)NS(=O)(=O)c3ccc(Cl)cc3)c(C)c(C)c2O1 | MCF7 | 5.29
